From: ChEMBL document CHEMBL1201862

system: UACC-257; experiment: NCI tumour cell line growth inhibition, 48 h
Activity calls are given as the source filed them. Rule as the data show it: active = GI50 up to about 1.1 µM and inactive = higher.
Classes to choose from: active, inactive

>>> label("CC(C)(C)c1ccc(CN2CCN(C(c3ccccc3)c3ccc(Cl)cc3)CC2)cc1 (stereo unspecified)")
"inactive"

input: State the result this test recorded for `CCN(CC)CCn1ncc2c3c(=O)c4cccnc4n(CCN(CC)CC)c3ccc21` .
output: inactive

input: For NC(Cc1ccc(B(O)O)cc1)C(=O)NC(CO)CO (stereo unspecified) then?
output: inactive

input: Also need `Cc1c(C2=NN=C(/N=N/c3c(O)cccc3O)/C2=C/c2ccccc2)c(=O)n(-c2ccccc2)n1C` , thanks.
output: inactive

* * *

system: NCI-H522; assay: NCI tumour cell line growth inhibition, 48 h
Activity calls are given as the source filed them. Cut-off read from the data, not from the text of the source: active = GI50 up to about 1.1 µM and inactive = higher.
Please state which outcome applies, choosing from class 1 for active, class 0 for inactive

input: Tell me the recorded outcome of this test for C[C@]12CC[C@H](O)CC1=CC[C@@H]1C2CC[C@]2(C)C(=O)NC(=O)CC12 (some centres undefined) .
output: class 0

* * *

system: NCI-H522; assay: NCI tumour cell line growth inhibition, 48 h
Calls of active or inactive are those of the source. No stated cut-off is given here; in the data, active = GI50 up to about 1.1 µM and inactive = higher.
Hi! Could you answer with just one of these? yes (active), no (inactive)

// below: answered molecules
>>> label("COc1cccc2c1NC(=O)Cc1c-2[nH]c2ccccc12")
"no"
>>> label("C1=C2/CC[C@H](Sc3ccccc3)[C@H]2C2(CCCCC/1)OCCO2")
"no"
>>> label("CSc1ccc2c(c1)c(CCN)c(C)n2Cc1ccccc1Cl")
"no"
>>> label("Nc1ccc(C(=O)NN2C(=O)C(Cl)C2c2ccc(O)cc2)cc1 (stereo unspecified)")
"no"
>>> label("Cc1cc(Cl)ccc1NC(=O)/C(Cl)=C(/Cl)C(=O)O")
"no"
>>> label("O=C(NN1C(=O)CSC1c1ccc(Cl)c(Cl)c1)c1ccncc1 (stereo unspecified)")
"no"
>>> label("CCOC(=O)C1C[C@H]2CO[C@H](c3ccccc3)N2C1=O (stereo partly specified)")
"no"
>>> label("O[C@@H]1CCC[C@@H]2NC[C@@H](c3ccc4c(c3)OCO4)[C@H]12")
"no"

input: Recorded test outcome, item `O=c1c2c([nH]c3cc4c(cc13)OCO4)-c1ccccc1C2`
output: no

* * *

system: ACHN; experiment: NCI tumour cell line growth inhibition, 48 h
Activity calls are given as the source filed them. No stated cut-off is given here; in the data, active = GI50 up to about 1.1 µM and inactive = higher.
molecules and their reported GI50

>>> testresult("Nc1cc2c(c3ccccc13)C(CCl)CN2C(=O)c1cc2cc(NC(=O)c3cc4ccccc4o3)ccc2[nH]1 (configuration not stated)")
"0.000492 µM (active)"

input: # get_value(readout='GI50', item= `CC(=O)N1CC(C)(C)c2c(C)c(O)c(C)c(C)c21` )
output: > 100 µM (inactive)

input: Now consider `O[C@@H]1CCC[C@@H]2NC[C@@H](c3ccc4c(c3)OCO4)[C@H]12` .
output: > 100 µM (inactive)

input: Item: `Cc1cc2c(c(S(=O)(=O)c3ccccc3[N+](=O)[O-])c1)NCCC2`
output: 28.9 µM (inactive)

input: Request: COc1ccccc1C1C2=C(COC2=O)Oc2cc3c(cc21)OCO3 (configuration not stated)
output: 14 µM (inactive)

input: Then `O=C1C=CC[C@H]2O[C@@H](COC(=O)Cc3ccccc3)C[C@H]2O1` ?
output: 32.1 µM (inactive)

input: Next record, please: `O=C1c2cccc3c2C(=O)c2c(cccc21)OCCOCCOCCOCCO3`
output: 78.5 µM (inactive)

input: Entry `Br[Se]c1ccccn1` please
output: 16.3 µM (inactive)

input: For `O=C1C=Cc2cscc21` then?
output: 34.5 µM (inactive)

input: Here is the next molecule: `COc1ccc(/C=N/Nc2nc(C)c3c(n2)Nc2ccccc2NC3=O)cc1`
output: > 100 µM (inactive)

input: // query: CN1C(=O)CCC2[C@@H]3CC=C4C[C@@H](O)CC[C@]4(C)C3CC[C@@]21C (some centres not stated)
output: 42.4 µM (inactive)

input: Subsequent entry: Cc1cccc(NC(=O)CC(=O)N2N=C(N(CCC#N)c3ccc(Cl)cc3)CC2c2ccccc2)c1 (configuration not stated)
output: > 100 µM (inactive)

input: # repeat for `CSc1ccc2c(c1)c(CCN)c(C)n2Cc1ccccc1Cl`
output: 1.69 µM (inactive)

input: What would you report for `CSCCCCCCCCCCOc1ccc(C=C2C(=C(C#N)C#N)c3ccccc3C2=C(C#N)C#N)cc1` ?
output: 13.1 µM (inactive)

input: Okay, and `CNC(=O)OCc1nccc2c(C)c3[nH]c4ccc(OC)cc4c3cc12` ?
output: 1.61 µM (inactive)

input: Repeat with CC(=O)C(CN(C(C)C)C(C)C)C(c1ccccc1)c1c(O)c2ccccc2oc1=O (configuration not stated)
output: > 100 µM (inactive)

input: Can you handle `Cc1ccc(C(=O)/C=C2\Nc3c(c(=O)oc4ccccc34)N=C2NC23CC4CC(CC(C4)C2)C3)cc1` next?
output: > 100 µM (inactive)

input: Nc1ccc(C(=O)NN2C(=O)C(Cl)C2c2ccc(O)cc2)cc1 (configuration not stated) , same question.
output: 35.2 µM (inactive)

input: Do the same for CC1CC(C)(C)CC(OCCN2CCCCC2)(c2ccccc2)C1 (configuration not stated) please
output: 15.9 µM (inactive)

input: What about this molecule? `NCc1nnn(Cc2ccccc2)c1N`
output: > 100 µM (inactive)

input: Then this molecule: `COc1cccc2c1NC(=O)Cc1c-2[nH]c2ccccc12`
output: > 100 µM (inactive)

input: Please answer likewise for `COc1ccc(NC(=O)CSc2nnc(Cc3ccccc3)o2)cc1`
output: > 100 µM (inactive)
